target: LsrK (Salmonella typhimurium, UniProt Q8ZKQ6); assay: biochemical; format: biochemical, S. typhimurium
Sequence (Q8ZKQ6 whole entry): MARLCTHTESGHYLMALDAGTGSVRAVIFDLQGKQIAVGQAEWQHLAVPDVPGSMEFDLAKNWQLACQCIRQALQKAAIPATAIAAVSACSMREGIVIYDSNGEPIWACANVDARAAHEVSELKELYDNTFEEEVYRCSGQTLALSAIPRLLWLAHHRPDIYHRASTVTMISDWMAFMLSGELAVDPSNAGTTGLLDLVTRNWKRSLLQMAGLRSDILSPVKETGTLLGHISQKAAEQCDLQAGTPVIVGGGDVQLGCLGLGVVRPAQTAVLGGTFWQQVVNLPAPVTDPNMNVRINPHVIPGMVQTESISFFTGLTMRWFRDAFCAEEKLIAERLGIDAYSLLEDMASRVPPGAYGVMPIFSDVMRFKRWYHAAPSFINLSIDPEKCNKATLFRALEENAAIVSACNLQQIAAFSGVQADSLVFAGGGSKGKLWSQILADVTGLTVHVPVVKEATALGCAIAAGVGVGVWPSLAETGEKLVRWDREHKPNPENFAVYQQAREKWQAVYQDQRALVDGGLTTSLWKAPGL
Structures can show the parent of a compound that is named as a salt.
Recorded measurements of inhibition at 50 µM, one per entry

| Molecule | inhibition at 50 µM |
| --- | --- |
| CO/N=C(\C(=O)N[C@@H]1C(=O)N2C(C(=O)O)=C(COC(C)=O)CS[C@H]12)c1csc(N)n1 [CEFOTAXIME SODIUM] | 32% |
| C=CC(N)CCC(=O)O (stereo not drawn) | 1% |
| CO[C@@]1(NC(=O)C(C(=O)O)c2ccc(O)cc2)C(=O)N2C(C(=O)O)=C(CSc3nnnn3C)CO[C@@H]21 (stereo partly drawn) [MOXALACTAM DISODIUM] | 1% |
| CCCC(CCC)C(=O)O [VALPROATE SODIUM] | 0% |
| O=c1oc2c(O)c(O)cc3c(=O)oc4c(O)c(O)cc1c4c23 | 7% |
| Oc1c(Cl)cc(Cl)c2cccnc12 | 13% |
| Nc1nc(=O)c2[nH]c(=O)cnc2[nH]1 | 2% |
| CC1=NCCc2c1[nH]c1cc(O)ccc21 [HARMALOL HYDROCHLORIDE] | 4% |
| Nc1ncnc2c1ncn2[C@@H]1O[C@H](CO)[C@@H](O)[C@@H]1O | 0% |
| CC1COc2c(N3CCN(C)CC3)c(F)cc3c(=O)c(C(=O)O)cn1c23 (stereo not drawn) | 4% |
| CCN1C[C@]2(COC)[C@H](O)C[C@H](OC)[C@@]34[C@@H]5C[C@@]6(O)[C@H](OC(=O)c7ccccc7)[C@@H]5[C@@](OC(C)=O)([C@@H]([C@H](OC)[C@H]23)[C@@H]14)[C@@H](O)[C@@H]6OC | 1% |
| c1cncc(C2=NCCC2)c1 | 2% |
| COc1ccc(/C=C/C(=O)Nc2ccccc2C(=O)O)cc1OC | 15% |
| NC1=NCCN1CC(=O)O | 0% |
| C=C[C@H]1C[N@@]2CC[C@H]1C[C@@H]2[C@@H](O)c1ccnc2ccccc12 | 1% |
| C#C[C@]1(O)CC[C@H]2[C@@H]3CCc4cc(O)ccc4[C@H]3CC[C@@]21C | 1% |
| C[C@H](N)[C@H](O)c1ccc(O)c(O)c1 | 123% |
| COCCCOc1cc(C[C@@H](C[C@H](N)[C@@H](O)C[C@H](C(=O)NCC(C)(C)C(N)=O)C(C)C)C(C)C)ccc1OC [ALISKIREN HEMIFUMARATE] | 0% |
| CNC(=O)Oc1ccc2c(c1)[C@]1(C)CCN(C)[C@@H]1N2C [PHYSOSTIGMINE SALICYLATE] | 1% |
| OC[C@H]1O[C@@H](n2cnc3c(NCc4ccco4)ncnc32)[C@H](O)[C@@H]1O [KINETIN RIBOSIDE] | 0% |
| C[C@H](CCC(=O)O)[C@H]1CC[C@H]2[C@@H]3CC[C@@H]4C[C@H](O)CC[C@]4(C)[C@H]3CC[C@]12C | 2% |
| CCC(C)C(=O)O[C@@H]1C[C@@]2(C)[C@H](c3ccoc3)OC(=O)CC23OC2(C)O[C@]14[C@]1(C)[C@@H](CC(=O)OC)C5(C)CC1(O)[C@](O)(C5OC(=O)C1(C)OC1C)[C@@H](OC(C)=O)[C@]34O2 (stereo partly drawn) | 1% |
| CN1CCOC(c2ccccc2)c2ccccc2C1 (stereo not drawn) | 1% |
| Sc1nc2ccccc2s1 | 1% |
| O=C(/C=C/c1ccccc1)c1ccc(O)cc1 [4'-HYDROXYCHALCONE] | 38% |
| COc1c(C)c2c(c(O)c1C/C=C(\C)CCC(=O)O)C(=O)OC2 | 1% |
| O=C(/C=C/C(=O)Oc1ccccc1C(=O)O)Oc1ccccc1C(=O)O [[…]] | 2% |
| NC(CO)C(=O)NNCc1ccc(O)c(O)c1O (stereo not drawn) [BENSERAZIDE HYDROCHLORIDE] | 97% |
| COC1=C(O)C(=O)c2c(cc3oc(C(C)=O)c(O)c3c2O)C1=O [RHO[…]] | 22% |
| CCC(C)(C)C(=O)O[C@H]1C[C@@H](C)C=C2C=C[C@H](C)[C@H](CC[C@@H]3C[C@@H](O)CC(=O)O3)[C@H]21 | 3% |
| CC(=O)O[C@]1(C(C)=O)CC[C@H]2[C@@H]3C[C@H](C)C4=CC(=O)CC[C@]4(C)[C@H]3CC[C@@]21C [MEDROXYPROGESTERONE ACETATE] | 1% |
| O=C(CCCN1CCC(O)(c2ccc(Br)cc2)CC1)c1ccc(F)cc1 | 1% |
| Cc1cc(O)c(C)c(O)c1C(=O)O [3-METHYL[…]] | 1% |
